Catalogue of pIC50 values
Target: α-glucosidase
Assay: α-glucosidase inhibition assay (pNPG substrate, absorbance at 405 nm)
Details: 0.1 M PBS pH 7.4, 37 °C, α-glucosidase 0.2 U/mL, 5 mM pNPG, triplicate; read-out: α-Glucosidase inhibitory activity, IC50 (50% inhibitory concentration)
In textbook form, pIC50 equals minus log to base ten of the concentration in mol/L.

Ask: Quick check: pIC50 of CC(=O)[C@H]1CC[C@H]2C3=C(CC[C@]12C)[C@@]1(C)CC[C@H](O)C[C@@H]1CC3 [Compound 3, Δ^8,9-3β-hydroxy-5α-17-acetyl steroid] ?
Reply: 3.55

More entries:
Ask: Give the measured pIC50 of CC(=O)N[C@H]1C(=O)SC[C@@H]1C [Compound 2, 2R-acetamide-3R-methyl-thiolactone] .
Reply: 3.83

Ask: Return reported pIC50; argument: CC(=O)C1CCC2C3=C(CCC12C)C1(C)CCC(O)CC1CC3 (stereo not drawn) [Compound 4, Δ^8,9-3α-hydroxy-5α-17-acetyl steroid]
Reply: 4.07
